Hello, the source for this data is ChEMBL document CHEMBL3098057, in case you need it.

- Test system: human MDR1
- method_description: Efflux ratio of permeability from basolateral to apical side over apical to basolateral side in pig LLC-PK1 cells expressing human MDR1
- Type: ADME, cell-based, Sus scrofa
test_readout: efflux ratio

C[C@H](c1cc(F)cc(F)c1)N(Cc1cnc2cc3c(cc2c1)C[C@@]1(C3)C(=O)Nc2ncccc21)C(=O)C(C)(C)C: 1.3

I = CC(C)(C)C(=O)N(C/C=C/c1cnc2c(c1)C[C@@]1(C2)C(=O)Nc2ncccc21)C1CCCCCC1
II = C[C@H](c1cc(F)cc(F)c1)N(CC(=O)Nc1ccc2c(c1)C[C@@]1(C2)C(=O)Nc2ncccc21)C(=O)C(C)(C)C
Look at I and II . Which one has the lower recorded efflux ratio number? Indicate your choice by writing its label.
I
(I: 0.8, II: 3.2)
